Source listed as patent CN107840891A.

Target: MSLN抗原 (Mesothelin, MSLN-Biotin) (human) (UniProt Q13421)
Test: BLI (Octet RED96), MSLN-Biotin on AR2G sensor, TG1 periplasmic scFv as analyte
Provide the reported 响应 of each item.
The reply should be a number, written without any unit.

-- ask Which 响应 is listed for 4D7 (scFv, V domains shown) VH: QVQLQQPGAELVKPGASMKLSCKASGYTFTSYWMHWVKQRPGQGLEWIGMIHPNSDNTIYYEKFKSKATLTVDKSSSTAYMQLSSLTSEDSAVYYCAITISPVVPKFDYWGQGTTLTVSS VL: DIVMTQSHQFMSTSVGDRVSVTCKASHDVGTSVAWYQQKPGQSPKLLIYWASTRHTGVPDRFTGSGSGTDFTLTISNVQSEDLADYFCQQYSSYPLTFGAGTKLELK ?
-- reply 0.96

-- ask Please give the measured 响应 for this binder: 3E12 (scFv, V domains shown) VH: QVQLQQPGAELVKPGASMKLSCKASGYTFTSYWMHWVKQRPGQGLEWIGMINLVSSRTIYYEKFKSKATLTVDKSSSTAYMQLSSLTSEDSAVYYCAIIITPVVPKFDYWGQGTTLTVSS VL: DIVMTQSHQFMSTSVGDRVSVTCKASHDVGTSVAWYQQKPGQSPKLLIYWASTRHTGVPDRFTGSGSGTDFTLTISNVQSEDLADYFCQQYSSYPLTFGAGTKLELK
-- reply 1.04

-- ask What does the data say about its 响应? Entry: 2G8 (scFv, V domains shown) VH: QVQLQQPGAELVKPGASMKLSCKASGTQFANYRMHWVKQRPGQGLEWIGMIHPNSDNTIYYEKFKSKATLTVDKSSSTAYMQLSSLTSEDSAVYYCAIIITPVVPKFDYWGQGTTLTVSS VL: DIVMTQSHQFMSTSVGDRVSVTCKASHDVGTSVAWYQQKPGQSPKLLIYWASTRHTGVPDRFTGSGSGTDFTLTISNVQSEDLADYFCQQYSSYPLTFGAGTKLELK
-- reply 1.11

-- ask Record request: 响应 value, item 4C11 (scFv, V domains shown) VH: QVQLQQPGAELVKPGASMKLSCKASGYTFTSYWMHWVKQRPGQGLEWIGMIHLNSAQTIYYEKFKSKATLTVDKSSSTAYMQLSSLTSEDSAVYYCAIIITPVVPKFDYWGQGTTLTVSS VL: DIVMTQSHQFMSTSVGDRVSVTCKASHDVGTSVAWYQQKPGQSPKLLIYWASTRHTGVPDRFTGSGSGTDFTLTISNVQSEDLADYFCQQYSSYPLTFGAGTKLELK
-- reply 1.16
